# Test system: Plasmodium falciparum
# experiment notes: GSK_TCMDC: Inhibition of Plasmodium falciparum 3D7 in whole red blood cells, using parasite LDH activity as an index of growth. Test compounds present at 2uM
# Type: functional
Could you please report measured Inhibition for the items listed next?

Record excerpt, results attached:
I would be grateful if you could share the reported Inhibition for COc1ccc(CNCc2ccc(-c3cccc(-c4nc5cc(C(F)(F)F)ccc5[nH]4)c3)cc2)cc1.O=C(O)C(F)(F)F .
100%

I would be grateful if you could share the reported Inhibition for CCCC(C)Nc1nc(C)cc(N[C@@H](CC(C)C)C(=O)NCCc2ccccc2)n1.O=C(O)C(F)(F)F (stereo not given in full) .
96%

I would be grateful if you could share the reported Inhibition for Cl.N#Cc1ccc(C2CCN(CC[C@H](N)Cc3ccc(Cl)s3)CC2)cc1 .
92%

I would be grateful if you could share the reported Inhibition for CN(C)CCn1c(=N)n(CC(O)c2ccc(Cl)c(Cl)c2)c2ccccc21.Cl (stereo not given) .
99%

Turning now to a further record.
I would be grateful if you could share the reported Inhibition for O=C(Nc1cccc(OCc2ccccc2)c1)c1ccc(CN2CCC(Cc3ccccc3)CC2)cc1 .
100%

---

# Tested on: Plasmodium falciparum
# experiment notes: GSK_TCMDC: Inhibition of Plasmodium falciparum 3D7 in whole red blood cells, using parasite LDH activity as an index of growth. Test compounds present at 2uM
# Format: functional
Could you please report measured Inhibition for the items listed next?
Give bare numbers, in %.

Record excerpt, results attached:
I would be grateful if you could share the reported Inhibition for CCC(CC)(Cc1ccccc1)NC(=O)[C@H](CC1CCCCC1)Nc1ccc(C#N)c2ccccc12.O=C(O)C(F)(F)F .
95

I would be grateful if you could share the reported Inhibition for COCCn1c(C)nc2ccccc2c1=O .
89

I would be grateful if you could share the reported Inhibition for CCCCCc1ccc(NC(=O)Nc2ccc(Cn3ncc(N4CCCNCC4)c(Cl)c3=O)cc2)cc1.O=C(O)C(F)(F)F .
87

I would be grateful if you could share the reported Inhibition for CCCc1cc(Cc2cnc(N)nc2N)cc(CCC)c1OCCCCCC(=O)OCC .
95

I would be grateful if you could share the reported Inhibition for COc1cc(NC(=O)c2c(-c3c(Cl)cccc3Cl)noc2C)c(OC)cc1Cl .
85

I would be grateful if you could share the reported Inhibition for CCCCn1c(Sc2ccc(C#N)c([N+](=O)[O-])c2)nnc1-c1cc(OC)cc(OC)c1 .
94

I would be grateful if you could share the reported Inhibition for COc1ccc2[nH]ccc(=NN=Cc3cccc(C)n3)c2c1 .
100

I would be grateful if you could share the reported Inhibition for CN(CC(=O)Nc1cc(C(F)(F)F)ccc1-n1cncn1)Cc1nc2ccccc2s1 .
87

Record Inhibition for all entries; do not skip any.
1. O=C(Nc1ccc2c(c1)CCC2)c1ccc(CN2CCCN(Cc3cccc(O)c3)CC2)cc1.O=C(O)C(F)(F)F
2. CCOc1cc2ncnc(Nc3ccc(OCc4c(Cl)cccc4Cl)c(OC)c3)c2cc1OCC.Cl
3. CC(Nc1ccnc2cc(Cl)ccc12)c1ccc(S(N)(=O)=O)cc1 (centres undefined)
4. CCOC(=O)c1ccc(NC(=O)N[C@@H](Cc2ccccc2)C(=O)NC2CCN(Cc3ccc(OCCCN(C)C)cc3)C2)cc1 (some centres undefined)
5. N#Cc1ccc(N[C@@H](CC2CCCCC2)C(=O)Nc2ccc(-c3ccccc3)cc2)c2ccccc12.O=C(O)C(F)(F)F
6. O=C(NC1CCN(Cc2ccccc2)CC1)c1cc(-c2cccnc2)nc2ccc(Cl)cc12
7. Cc1ncc([N+](=O)[O-])n1CCOC(=O)NC(NCC1COc2ccccc2O1)C(Cl)(Cl)Cl (centres undefined)
8. CN1CCC(NC(=O)c2cc(Oc3ccc4c(c3)CCN4C(=O)Nc3cccc(C(F)(F)F)c3)ccn2)CC1.O=C(O)C(F)(F)F

1: 88; 2: 89; 3: 96; 4: 91; 5: 100; 6: 97; 7: 100; 8: 92

Record Inhibition for all entries; do not skip any.
1. O=C(NCc1cccc(C(F)(F)F)c1)c1ccc(CNC(=O)c2ccc(O)c(-c3ccc(Cl)c(Cl)c3)c2)cc1
2. O=C(/C=C/c1ccc(Cl)c(Cl)c1)NCCCCCN1CCC(NC(=O)Nc2ccc(F)c(Cl)c2)CC1
3. COc1cccc(CNC(=O)NC2CCN(c3ccnc(Nc4ccc(F)cc4)n3)C2)c1 (centres undefined)

1: 92; 2: 100; 3: 94

---

# System: Plasmodium falciparum
# experiment notes: GSK_TCMDC: Inhibition of Plasmodium falciparum 3D7 in whole red blood cells, using parasite LDH activity as an index of growth. Test compounds present at 2uM
# Type: functional
observation type: Inhibition (%)
Numbers only, in %.

Record excerpt, results attached:
Lab request: please report Inhibition under test system Plasmodium falciparum for COc1cc(C(=O)Nc2nc3ccccc3[nH]2)ccc1OCC(=O)Nc1cccc(C(F)(F)F)c1
100

Lab request: please report Inhibition under test system Plasmodium falciparum for O=C(Cc1ccccn1)Nc1cccc(-c2cccc(-c3nc4cc(C(F)(F)F)ccc4[nH]3)c2)c1
95

Lab request: please report Inhibition under test system Plasmodium falciparum for CC(=O)Oc1cc(C(=O)Nc2ccc(Cl)cc2)cc2ccccc12
88

Lab request: please report Inhibition under test system Plasmodium falciparum for O=C(NC1CCCCC1)N(Cc1cccc(-c2ccc(CNC3CCCC3)cc2)c1)C1CCN(Cc2ccccc2)CC1.O=C(O)C(F)(F)F
98

Lab request: please report Inhibition under test system Plasmodium falciparum for CC1(C)N=C(N)N=C(N)N1c1cccc(C(F)(F)F)c1.Cl
95

Lab request: please report Inhibition under test system Plasmodium falciparum for O=C(N1CCN(c2cccc(C(F)(F)F)c2)CC1)C(Cl)(Cl)Cl
89

Lab request: please report Inhibition under test system Plasmodium falciparum for C=CCc1cc(Cc2cnc(N)nc2N)c2ccc(C)nc2c1OC
96

Lab request: please report Inhibition under test system Plasmodium falciparum for Cc1cccc(CC(=N)NCCCCCCNC(=N)Cc2cccc(C)c2)c1.Cl
97

Record Inhibition for all entries; do not skip any.
1. CCOc1ccc(C(=O)N2CCOC(CCN3CCC(c4ccccc4)CC3)(c3ccc(Cl)c(Cl)c3)C2)cc1 (stereo unspecified)
2. CCCNC(=O)c1ccnc(-c2ccc(CNC3Cc4ccccc4C3)cc2)c1.O=C(O)C(F)(F)F
3. Cc1c(CC(=O)NCCC2CCN(CCCCCNC(=O)/C=C/c3ccc(Cl)c(Cl)c3)CC2)sc2ccc(Cl)cc12
4. COc1ccc2nccc([C@@H](O)CN3CCC(NCc4cc5ccccc5[nH]4)CC3)c2n1.O=C(O)C(=O)O
5. O=C(Nc1cccc(-c2ccc(CN3CCC(O)CC3)cc2)c1)c1ccc(Cl)cc1.O=C(O)C(F)(F)F
6. Cc1cccc2nc(-c3ccc(-c4cccc(NC(=O)Nc5ccc6c(c5)OCO6)c4)cc3)[nH]c12
7. COc1ccc(NC(=O)[C@H](CC(C)C)Nc2cc(C)nc(NCCc3cccs3)n2)cc1.O=C(O)C(F)(F)F
8. COCc1ccccc1C(=O)NCCOc1cc(C)cc(C)c1

1: 88; 2: 92; 3: 92; 4: 100; 5: 95; 6: 100; 7: 100; 8: 96

---

# Test system: HepG2
# experiment notes: GSK_TCMDC: Percent inhibition of human HepG2 cell line. Test compounds present at 10uM.
# Type: functional
Classes based on Inhibition: group A (below 10%), group B (10% to below 30%), group C (30% or more)

// below: answered compounds
Each compound maps to one class by Inhibition. Which class for Cc1cc(N[C@@H](CC(C)C)C(=O)NC2CCCC2)nc(NCC2CCCCC2)n1.O=C(O)C(F)(F)F ?
group A

Each compound maps to one class by Inhibition. Which class for OC(CN1CCN(Cc2ccccc2)CC1)Cn1c(-c2ccccc2)c(-c2ccccc2)c2ccccc21 (centres undefined) ?
group A

Each compound maps to one class by Inhibition. Which class for NC(=O)c1ccc(C(=O)Nc2cccc(-c3csc(-c4nc5ccccc5[nH]4)c3)c2)cc1 ?
group B

Each compound maps to one class by Inhibition. Which class for COc1cc2nc(N3CCC(CNC(=O)c4ccc(-c5ccc(C(=O)N(C)C)cc5C)cc4)CC3)nc(N3CCN(C)CC3)c2cc1OC ?
group B

Each compound maps to one class by Inhibition. Which class for O=S(=O)(Nc1cccc(CCN2CCCCC2CCN2CCCC2)c1)c1ccc2ccccc2c1 (centres undefined) ?
group B

---
Each compound maps to one class by Inhibition. Which class for Cl.N=C(N)NN=Cc1c2ccc(Cl)cc2c(Cl)c2ccc(Cl)cc12 ?
group B

Each compound maps to one class by Inhibition. Which class for CN1CCN(c2nsc3ccc(-c4ccc(NC(=O)Nc5ccccc5)cc4)cc23)CC1.O=C(O)C(F)(F)F ?
group C

Each compound maps to one class by Inhibition. Which class for O=C(Nc1ccc(C(F)(F)F)cc1)NC1CCN(CCCCCNC(=O)C2CC2c2ccc(Cl)c(Cl)c2)CC1 (centres undefined) ?
group C

Each compound maps to one class by Inhibition. Which class for COc1ccccc1N1CCN(CCCCNC(=O)c2ccc(NC(=O)c3ccc(C(F)(F)F)cc3)cc2)CC1 ?
group B
